Exercise: for every item that follows, state its recorded T/C.
Test system: L1210 leukemia ip in BDF1 mice, survival T/C
TEST_METHOD_NOTES: NCI In Vivo Anticancer Drug Screen. Data for tumor model L1210 Leukemia (intraperitoneal) in B6D2F1 (BDF1) mice
TEST_PARAMETERS: endpoint: mean survival time; dose: 200.0 mg/kg/injection; schedule: Q01DX009 (ip); vehicle: saline with Tween-80; higher = longer survival
Inconclusive results and toxic doses are left out.

What value of measured T/C is listed for CCNc1nc(N)nc2n[nH]nc12 ?
89 % of control

Param item: O=c1c2ccccc2[nH]c2c([N+](=O)[O-])cccc12
99 % of control

Please give the result for CCCCC(C=O)(C=C=C(C)C)CC (stereo not drawn) too.
91 % of control

Also check CCOC(=O)C(CC(=O)c1ccccc1)C(C)=O (stereo not drawn)
97 % of control

Same again, this time with CC1(C)C(=O)C(C)(C)C1=Nc1ccccc1
94 % of control

Moving on to the next compound: Cc1ccc(C(=O)O)cc1S(=O)(=O)Cl
95 % of control

Entry CCCCCCC(C)O[Si](C)c1ccc(C)cc1 (stereo not drawn) please
90 % of control

How about this compound: CS(=O)(=O)OCCCN(CCCOS(C)(=O)=O)c1ccc(C=Nc2ccc(-c3csc(COc4ccc(Br)cc4)n3)cc2)cc1
95 % of control

Check CSc1ccc(NC(=O)Oc2ccccn2)cc1 too.
90 % of control

Try the compound CC(=O)c1cccc(NC(=O)Nc2ccc(S(N)(=O)=O)cc2)c1
97 % of control

Thanks! And O=C1NC(=O)c2ccc(S)c3cccc1c23 ?
90 % of control

Try this compound next: COC1OC(COC(=O)c2ccccc2)C(OC(=O)c2ccccc2)C(OC(=O)c2ccccc2)C1OC(=O)c1ccccc1 (stereo not drawn)
107 % of control

Subsequent entry: CCOC(=O)c1ccc(NC(=S)Nc2ccc(C(=O)OCC)cc2)cc1
93 % of control

Record: CC(C)=NNS(=O)(=O)c1ccccc1
101 % of control

And for COc1ccc(Cc2cc3cc(OC)c(OC)cc3cn2)cc1OC ?
105 % of control

Thanks! And Brc1cnc(OCc2ccccc2)nc1OCc1ccccc1 ?
102 % of control

Same question, CCCCSCCC this time
98 % of control

Another compound to look at: CC12CCCCC1=CC(OC(=O)c1ccc([N+](=O)[O-])cc1)CC2 (stereo not drawn)
94 % of control

How about Clc1nc2nc(C3CC3)[nH]c2nc1Cl ?
90 % of control

Same again, this time with O=C1c2ccccc2C(=O)N1CNc1ccc2c(c1)OCO2
90 % of control

Now the compound Cc1cccc(-c2nc(N)nc(N)n2)c1C
101 % of control

Same question for CN(C)Cc1cc(C(C)(C)C)cc(C2CCCCC2)c1O please.
94 % of control

Entry to check: CCOC(=O)N1CCC2(CC1)NC(=O)c1ccccc1N2
97 % of control

Lookup C1=C(c2ccccc2)CCCCC1
96 % of control

Continue with CCOC(=O)CC(=O)N/N=C(/C)C(=O)OCC
87 % of control

How about C#CCCC#C ?
102 % of control

Note, next up: CCCC(C)(O)C#CC(C)(O)CCC (stereo not drawn)
97 % of control

Entry to check: CCOc1ccc(NC(=O)OC/C=C/c2ccccc2)cc1
90 % of control

Follow-up item: O=C(/C(=N\O)c1ccc(Cl)cc1)c1ccc(Cl)cc1
92 % of control

Cool, now O=C(O)CO
100 % of control

Now the compound C(=N\N=C\c1ccccc1)/c1ccccc1
100 % of control

Same lookup for Cc1cc(NC(=O)SCCOC(=O)COc2ccc(Cl)cc2)ccc1Cl , please.
88 % of control

Lookup O=S(=O)(Nc1ccc(NS(=O)(=O)c2ccccc2)c(S(=O)(=O)c2ccccc2)c1)c1ccccc1
98 % of control
